Reference source for all entries: patent US8461328B2

- assayed target: JAK1 (Homo sapiens, UniProt P23458)
- Construct: made in house; host or cells: SF9 insect cells (baculovirus)
- Sequence (P23458 852-1154): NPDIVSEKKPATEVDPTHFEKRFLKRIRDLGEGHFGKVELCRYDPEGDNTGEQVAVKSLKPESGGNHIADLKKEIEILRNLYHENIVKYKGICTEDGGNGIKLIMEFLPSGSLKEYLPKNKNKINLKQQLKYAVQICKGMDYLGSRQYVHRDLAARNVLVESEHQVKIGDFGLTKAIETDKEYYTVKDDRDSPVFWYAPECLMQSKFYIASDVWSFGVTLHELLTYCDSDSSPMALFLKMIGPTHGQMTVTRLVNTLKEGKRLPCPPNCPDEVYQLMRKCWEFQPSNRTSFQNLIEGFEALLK
- assay procedure: JAK1 inhibition (Table 4)
- Format: biochemical
- condition: read-out: JAK1 Ki
measured metric: log10 Ki (log10 of the value in nM)
Note the log scale: values are log10 of Ki expressed in nM.

The examples below pair each entry with its known result.
c1cc2c(ncc3ncn(CC4CCNCC4)c32)[nH]1    2.44
Cc1nc2cnc3[nH]ccc3c2n1C1CCC(N2CCC(C#N)CC2)CC1 (stereo not drawn)    0.25
N#CCCN1CCC(n2c(COC3CCOCC3)nc3cnc4[nH]ccc4c32)CC1    1.60
OCCc1nc2cnc3[nH]ccc3c2n1[C@@H]1CCCOC1    1.86
C[C@@H](O)c1nc2cnc3[nH]ccc3c2n1[C@H]1CC[C@H](S(C)(=O)=O)CC1    1.02

// sample C[C@@H](O)c1nc2cnc3[nH]ccc3c2n1[C@H]1CC[C@H](N2CC[C@@H](C#N)C2)CC1 , its log10 Ki was 0.86

// sample CS(=O)(=O)CCN1CCC(n2cnc3cnc4[nH]ccc4c32)CC1 , its log10 Ki was 0.29

// sample Cn1nccc1C(=O)NCc1nc2cnc3[nH]ccc3c2n1C1CCN(CCC#N)CC1 , its log10 Ki was 0.34

// sample O=C(N[C@H]1CC[C@H](n2cnc3cnc4[nH]ccc4c32)CC1)OC1CCNCC1 , its log10 Ki was 0.93
